Taken from the supplement of paper PMC6992640.

Test system: WHIM30 (cells of a triple-negative basal-like breast cancer xenograft);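 note: PDX cells carrying CMV promoter-driven luciferase, viability read as total photon flux per second by IVIS imaging following D-luciferin, vehicle control 0.1% DMSO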
Assay: cell viability (% of vehicle); higher = less cytotoxic
Conditions: 10 µM; 72 h
PARAMETER: cell viability

In the examples that follow, each entry is paired with its recorded cell viability.
COMPOUND | TARGET OR TEST SYSTEM | cell viability
C[N+](C)(C)CCOC(=O)CCC(=O)OCC[N+](C)(C)C.O.O.[Cl-].[Cl-] [Succinylcholine Chloride Dihydrate] | WHIM30 | 133
CCCCC1=NC2(CCCC2)C(=O)N1Cc1ccc(-c2ccccc2-c2nn[nH]n2)cc1 | WHIM30 | 82.7
CCCCCCCCCCCCCCCCCCCCCCO | WHIM30 | 102
NC(N)=NS(=O)(=O)c1ccc(N)cc1 | WHIM30 | 118
CCCCC(=O)OC1CCC2C3CCc4cc(O)ccc4C3CCC12C (configuration not stated) [Estradiol valerate] | WHIM30 | 134

**Q:** Fill in: cell viability of "Cc1c(F)cc(C(=O)NC2CC2)cc1-c1ccc(C(=O)NCC(C)(C)C)cn1" is ___
**A:** 101

**Q:** Now consider CC(C)c1nc(N(C)S(C)(=O)=O)nc(-c2ccc(F)cc2)c1C=CC(O)CC(O)CC(=O)[O-].CC(C)c1nc(N(C)S(C)(=O)=O)nc(-c2ccc(F)cc2)c1C=CC(O)CC(O)CC(=O)[O-].[Ca+2] (configuration not stated) .
**A:** 88.4
